test system: 885724-159-R-J1-PDC KRAS PDC multicell spheroid viability; assay: Anticancer human tumor 885724-159-R-J1-PDC patient-derived pancreatic adenocarcinoma cell line growth inhibition [KRAS2]; settings: second compound 3.16 µM; first compound 0.00316 µM; stronger effect = lower value

{"Compound": "CC(C)n1nc(-c2ccc3oc(N)nc3c2)c2c(N)ncnc21 + C=CC(=O)N1CCN(c2nc(=O)n(-c3c(C)ccnc3C(C)C)c3nc(-c4c(O)cccc4F)c(F)cc23)C(C)C1", "viability, T/C": "68.3%"}
{"Compound": "CCN1CCN(Cc2ccc(Nc3ncc(F)c(-c4cc(F)c5nc(C)n(C(C)C)c5c4)n3)nc2)CC1 + CNCc1ccccc1-c1csc(C(C)Nc2nc(C)nc3cc(OC)c(OC)cc23)c1", "viability, T/C": "0.67%"}
{"Compound": "CN(C)C/C=C/C(=O)Nc1cc2c(Nc3ccc(F)c(Cl)c3)ncnc2cc1O[C@H]1CCOC1 + C=CC(=O)N1CCN(c2nc(OCC3CCCN3C)nc3c2CCN(c2cccc4cccc(C)c24)C3)CC1CC#N", "viability, T/C": "40.8%"}

====

System: 885724-159-R-J1-PDC KRAS PDC multicell spheroid viability
Test: Anticancer human tumor 885724-159-R-J1-PDC cell line growth inhibition [KRAS2];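 note: spheroids exposed to agents for 7 days before readout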
Settings: curve of first compound; second compound 10 µM
Source text: Multicellular complex tumor spheroid response to RAS pathway inhibitors in combination with a targeted agents in patient-derived cell lines with oncogenic KRAS variants from multiple cancer types A high-throughput screen of multi-cell type tumor spheroids was designed to identify active combinations of targeted small molecules and KRAS pathway inhibitors. […] Compounds. […] If the clinical Cmax for an agent had not been determined, the highest concentration tested was 10 microM. […]
Each entry below carries its recorded IC50.

{"Compound": "COC(=O)c1ccc2c(C(=Nc3ccc(N(C)C(=O)CN4CCN(C)CC4)cc3)c3ccccc3)c(O)[nH]c2c1 + C=CC(=O)N1CCN(c2nc(=O)n(-c3c(C)ccnc3C(C)C)c3nc(-c4c(O)cccc4F)c(F)cc23)C(C)C1", "IC50": "1540 nM"}
{"Compound": "CC(=O)Nc1cccc(-n2c(=O)n(C3CC3)c(=O)c3c(Nc4ccc(I)cc4F)n(C)c(=O)c(C)c32)c1 + CNCc1ccccc1-c1csc(C(C)Nc2nc(C)nc3cc(OC)c(OC)cc23)c1", "IC50": "< 0.1 nM"}
{"Compound": "COc1cc2nccc(Oc3ccc(NC(=O)C4(C(=O)Nc5ccc(F)cc5)CC4)cc3)c2cc1OC + C=CC(=O)N1CCN(c2nc(=O)n(-c3c(C)ccnc3C(C)C)c3nc(-c4c(O)cccc4F)c(F)cc23)C(C)C1", "IC50": "2400 nM"}
{"Compound": "CC1COCCN1c1cc(-c2ccnn2C)c2ccnc(-c3ccn[nH]3)c2n1 (stereo not drawn) + COc1cc2nc(C)nc(NC(C)c3cc(N)cc(C(F)(F)F)c3)c2cc1OC1CCOC1", "IC50": "< 10 nM"}
{"Compound": "O=C(c1cc(Cc2n[nH]c(=O)c3ccccc23)ccc1F)N1CCN(C(=O)C2CC2)CC1 + C=CC(=O)N1CCN(c2nc(=O)n(-c3c(C)ccnc3C(C)C)c3nc(-c4c(O)cccc4F)c(F)cc23)C(C)C1", "IC50": "> 10000 nM"}
{"Compound": "Cn1ncnc1[C@H]1c2n[nH]c(=O)c3cc(F)cc(c23)N[C@@H]1c1ccc(F)cc1 + CNCc1ccccc1-c1csc(C(C)Nc2nc(C)nc3cc(OC)c(OC)cc23)c1", "IC50": "< 0.316 nM"}
{"Compound": "CN(C)C/C=C/C(=O)Nc1cc2c(Nc3ccc(F)c(Cl)c3)ncnc2cc1O[C@H]1CCOC1 + CNCc1ccccc1-c1csc(C(C)Nc2nc(C)nc3cc(OC)c(OC)cc23)c1", "IC50": "< 0.316 nM"}
{"Compound": "CC(C)n1nc(-c2ccc3oc(N)nc3c2)c2c(N)ncnc21 + CNCc1ccccc1-c1csc(C(C)Nc2nc(C)nc3cc(OC)c(OC)cc23)c1", "IC50": "< 0.316 nM"}

====

Each entry below carries its recorded viability, T/C.
test system: 885724-159-R-J1-PDC KRAS PDC multicell spheroid viability; assay: Anticancer human tumor 885724-159-R-J1-PDC cell line growth inhibition [KRAS2]; settings: second compound 0.316 µM; first compound 0.01 µM; stronger effect = lower value;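 note: spheroids exposed to agents for 7 days before readout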

{"Molecule": "CC(=O)Nc1cccc(-n2c(=O)n(C3CC3)c(=O)c3c(Nc4ccc(I)cc4F)n(C)c(=O)c(C)c32)c1 + C=CC(=O)N1CCN(c2nc(OCC3CCCN3C)nc3c2CCN(c2cccc4cccc(C)c24)C3)CC1CC#N", "viability, T/C (%)": 28.7}
{"Molecule": "CC(=O)OC12COC1CC(O)C1(C)C(=O)C(O)C3=C(C)C(OC(=O)C(O)C(NC(=O)OC(C)(C)C)c4ccccc4)CC(O)(C(OC(=O)c4ccccc4)C21)C3(C)C (stereo not given) + COc1cc2nc(C)nc(NC(C)c3cc(N)cc(C(F)(F)F)c3)c2cc1OC1CCOC1", "viability, T/C (%)": 104}
{"Molecule": "CC(C)n1nc(-c2ccc3oc(N)nc3c2)c2c(N)ncnc21 + COc1cc2nc(C)nc(NC(C)c3cc(N)cc(C(F)(F)F)c3)c2cc1OC1CCOC1", "viability, T/C (%)": 57.2}
{"Molecule": "Cn1ncnc1[C@H]1c2n[nH]c(=O)c3cc(F)cc(c23)N[C@@H]1c1ccc(F)cc1 + COc1cc2nc(C)nc(NC(C)c3cc(N)cc(C(F)(F)F)c3)c2cc1OC1CCOC1", "viability, T/C (%)": 98.3}
{"Molecule": "CN(C)C/C=C/C(=O)Nc1cc2c(Nc3ccc(F)c(Cl)c3)ncnc2cc1O[C@H]1CCOC1 + C=CC(=O)N1CCN(c2nc(=O)n(-c3c(C)ccnc3C(C)C)c3nc(-c4c(O)cccc4F)c(F)cc23)C(C)C1", "viability, T/C (%)": 101}

====

Each entry below carries its recorded viability, T/C.
system: 885724-159-R-J1-PDC KRAS PDC multicell spheroid viability; assay: Anticancer human tumor 885724-159-R-J1-PDC cell line growth inhibition [KRAS2]; conditions: second compound 0.316 µM; first compound 0.1 µM; stronger effect = lower value;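 note: spheroids exposed to agents for 7 days before readout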
Reported Metric: viability, T/C (%)

{"Compound": "CN(C)C/C=C/C(=O)Nc1cc2c(Nc3ccc(F)c(Cl)c3)ncnc2cc1O[C@H]1CCOC1 + C=CC(=O)N1CCN(c2nc(OCC3CCCN3C)nc3c2CCN(c2cccc4cccc(C)c24)C3)CC1CC#N", "Reported Metric": "viability, T/C", "Recorded Result": 65.7}
{"Compound": "CCN1CCN(Cc2ccc(Nc3ncc(F)c(-c4cc(F)c5nc(C)n(C(C)C)c5c4)n3)nc2)CC1 + CNCc1ccccc1-c1csc(C(C)Nc2nc(C)nc3cc(OC)c(OC)cc23)c1", "Reported Metric": "viability, T/C", "Recorded Result": 83.4}
{"Compound": "CC1COCCN1c1cc(-c2ccnn2C)c2ccnc(-c3ccn[nH]3)c2n1 (stereo not drawn) + CC1OCC2(CCN(c3cnc(Sc4ccnc(N)c4Cl)c(N)n3)CC2)C1N", "Reported Metric": "viability, T/C", "Recorded Result": 61.4}

====

system: 885724-159-R-J1-PDC KRAS PDC multicell spheroid viability; assay: Anticancer human tumor 885724-159-R-J1-PDC cell line growth inhibition [KRAS2]; settings: second compound 0.316 µM; first compound 0.000316 µM; stronger effect = lower value;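 note: spheroids exposed to agents for 7 days before readout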
Each entry below carries its recorded viability, T/C.

{"Molecule": "CC(=O)Nc1cccc(-n2c(=O)n(C3CC3)c(=O)c3c(Nc4ccc(I)cc4F)n(C)c(=O)c(C)c32)c1 + COc1cc2nc(C)nc(NC(C)c3cc(N)cc(C(F)(F)F)c3)c2cc1OC1CCOC1", "viability, T/C (%)": 68.9}
{"Molecule": "CN(C)C/C=C/C(=O)Nc1cc2c(Nc3ccc(F)c(Cl)c3)ncnc2cc1O[C@H]1CCOC1 + CC1OCC2(CCN(c3cnc(Sc4ccnc(N)c4Cl)c(N)n3)CC2)C1N", "viability, T/C (%)": 103}
{"Molecule": "CN(C)C/C=C/C(=O)Nc1cc2c(Nc3ccc(F)c(Cl)c3)ncnc2cc1O[C@H]1CCOC1 + CNCc1ccccc1-c1csc(C(C)Nc2nc(C)nc3cc(OC)c(OC)cc23)c1", "viability, T/C (%)": 108}
{"Molecule": "CC(C)n1nc(-c2ccc3oc(N)nc3c2)c2c(N)ncnc21 + CNCc1ccccc1-c1csc(C(C)Nc2nc(C)nc3cc(OC)c(OC)cc23)c1", "viability, T/C (%)": 100}
{"Molecule": "CC(=O)Nc1cccc(-n2c(=O)n(C3CC3)c(=O)c3c(Nc4ccc(I)cc4F)n(C)c(=O)c(C)c32)c1 + CNCc1ccccc1-c1csc(C(C)Nc2nc(C)nc3cc(OC)c(OC)cc23)c1", "viability, T/C (%)": 70.2}
{"Molecule": "Cn1ncnc1[C@H]1c2n[nH]c(=O)c3cc(F)cc(c23)N[C@@H]1c1ccc(F)cc1 + CNCc1ccccc1-c1csc(C(C)Nc2nc(C)nc3cc(OC)c(OC)cc23)c1", "viability, T/C (%)": 92.6}
{"Molecule": "CC(C)n1nc(-c2ccc3oc(N)nc3c2)c2c(N)ncnc21 + C=CC(=O)N1CCN(c2nc(OCC3CCCN3C)nc3c2CCN(c2cccc4cccc(C)c24)C3)CC1CC#N", "viability, T/C (%)": 82.1}
{"Molecule": "CN(C)C/C=C/C(=O)Nc1cc2c(Nc3ccc(F)c(Cl)c3)ncnc2cc1O[C@H]1CCOC1 + C=CC(=O)N1CCN(c2nc(=O)n(-c3c(C)ccnc3C(C)C)c3nc(-c4c(O)cccc4F)c(F)cc23)C(C)C1", "viability, T/C (%)": 124}
{"Molecule": "CC(=O)Nc1cccc(-n2c(=O)n(C3CC3)c(=O)c3c(Nc4ccc(I)cc4F)n(C)c(=O)c(C)c32)c1 + CC1OCC2(CCN(c3cnc(Sc4ccnc(N)c4Cl)c(N)n3)CC2)C1N", "viability, T/C (%)": 57.4}
{"Molecule": "CN(C)C/C=C/C(=O)Nc1cc2c(Nc3ccc(F)c(Cl)c3)ncnc2cc1O[C@H]1CCOC1 + COc1cc2nc(C)nc(NC(C)c3cc(N)cc(C(F)(F)F)c3)c2cc1OC1CCOC1", "viability, T/C (%)": 98.7}
{"Molecule": "Cn1ncnc1[C@H]1c2n[nH]c(=O)c3cc(F)cc(c23)N[C@@H]1c1ccc(F)cc1 + C=CC(=O)N1CCN(c2nc(=O)n(-c3c(C)ccnc3C(C)C)c3nc(-c4c(O)cccc4F)c(F)cc23)C(C)C1", "viability, T/C (%)": 118}
